- MEASUREMENT TARGET: cathepsin B (Mus musculus, UniProt P10605)
- Construct: This method allowed analysis of cathepsin B specificity in crude extracts; endogenous in cells; host or cells: DC2.4 dendritic cell line
- Sequence (P10605 80-333 limits assumed): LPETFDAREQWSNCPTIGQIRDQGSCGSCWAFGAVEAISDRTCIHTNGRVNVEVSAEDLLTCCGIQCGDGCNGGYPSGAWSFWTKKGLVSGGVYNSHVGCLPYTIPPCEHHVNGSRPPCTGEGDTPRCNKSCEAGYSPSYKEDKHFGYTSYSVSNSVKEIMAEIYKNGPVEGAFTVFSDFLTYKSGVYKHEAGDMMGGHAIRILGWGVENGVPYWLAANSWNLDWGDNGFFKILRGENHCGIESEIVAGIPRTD
- RUN DESCRIPTION: Competition labeling in DC2.4 lysates with cathepsin B-specific 125I-MB-074
- Format: biochemical
- MEASUREMENT CONDITIONS: P2 library preincubation
ASSAY READOUT: activity, competition of 125I-MB-074 labeling of cathepsin B

-- ask Sample CC(C)[C@H](N)C(=O)O [valine containing compound] — what was its activity, competition of 125I-MB-074 labeling of cathepsin B?
-- reply highest activity

-- ask Try CC[C@H](C)[C@H](N)C(=O)O [isoleucine] next.
-- reply highest activity

-- ask Try CCCC[C@H](N)C(=O)O [norleucine] next.
-- reply highest activity
